Reference for the values: the supplement of paper PMC10567573

B1: FBXO3 (parent)
chain: HDPLWRRHCKKYWLISEEEKTQKN

Variants of: B1
Experiment: protein stability index of a GFP-peptide fusion (GPS, HEK-293T) (PSI 1-6); higher = more stable;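 also: lentivirally expressed fusions sorted by FACS into six bins by GFP to DsRed ratio, PSI derived from sequencing read proportions per bin multiplied by bin number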
Conditions: c terminus: a fixed tail appended
Catalogue of variants with associated protein stability index
# answer = number (no unit)

// worked examples, protein stability index included
| BIOPOLYMER SEQUENCE | protein stability index |
| --- | --- |
| CDPLWRRHCKKYWLISEEEKTQKN [H1C] | 3.53 |
| HDPLWRRHCGKYWLISEEEKTQKN [K10G] | 3.41 |
| HDPLWRRHCIKYWLISEEEKTQKN [K10I] | 2.02 |
| HDPLWRRHCKKYWLQSEEEKTQKN [I15Q] | 3.68 |
| HDPLWRRHCKKLWLISEEEKTQKN [Y12L] | 3.74 |

I would be grateful if you could share the reported protein stability index for HDPLWRRFCKKYWLISEEEKTQKN [H8F] .
1.73
